- target: 肝癌Huh-7细胞 (Huh-7癌细胞抗原; Huh-7细胞裂解蛋白)
- protocol: indirect ELISA; plate coated with 2 μg/mL Huh-7 cell antigen; purified ascites antibody in 2-fold dilutions
readout.kind: 抗体效价
No unit in the answer, only the number.

# binder, 抗体效价
rows = [
    ("5A3单克隆抗体 (antibody, V domains shown) VH: EVKLVESGGGLVKPGGSLKLSCAASGFTFSRYAMSWVRQIPEKRLEWVAAISSGGSLYFPDSVKGRFTISRDNARNICYLQMNSLRSDDTAMYYCARGREADGGYFDYWGQGTTLTVSS VL: DIVLTQSPASLAVSLGQRATISCSASESCYYYGTSLAQWYQQKPGQPPKLLIYKLSNVRGGVPARFSGSGSGTDFSLNIHPVEEDDIAMYFCRQPMKVPLKFGAGTKLELK", "2.56e+06"),
]

Data point: 4D3单克隆抗体 (antibody, V domains shown) VH: EVKLVESGGGLVKPGGSLKLSCAASGFTFSASAQSWVRQIPEKRLEWVALQSRSGSLYFPASVKQRFTISRDNARNICYLQMNSLRSDDTAMYYCARSREASGGYIDEWGQGTTLTVSS VL: DIVLTQSPASLAVSLGQRATISCSASESGGYYGTSLMNWYQQKPGQPPKLLIYSTSNEEKGVPARFSGSGSGTDFSLNIHPVEEDDIAMYFCGQSMKRPLRFGAGTKLELK ; 抗体效价 = 5.12e+06
